target-system: HPK1 (MAP4K1) (Homo sapiens, UniProt Q92918)
Sequence (Q92918 whole entry): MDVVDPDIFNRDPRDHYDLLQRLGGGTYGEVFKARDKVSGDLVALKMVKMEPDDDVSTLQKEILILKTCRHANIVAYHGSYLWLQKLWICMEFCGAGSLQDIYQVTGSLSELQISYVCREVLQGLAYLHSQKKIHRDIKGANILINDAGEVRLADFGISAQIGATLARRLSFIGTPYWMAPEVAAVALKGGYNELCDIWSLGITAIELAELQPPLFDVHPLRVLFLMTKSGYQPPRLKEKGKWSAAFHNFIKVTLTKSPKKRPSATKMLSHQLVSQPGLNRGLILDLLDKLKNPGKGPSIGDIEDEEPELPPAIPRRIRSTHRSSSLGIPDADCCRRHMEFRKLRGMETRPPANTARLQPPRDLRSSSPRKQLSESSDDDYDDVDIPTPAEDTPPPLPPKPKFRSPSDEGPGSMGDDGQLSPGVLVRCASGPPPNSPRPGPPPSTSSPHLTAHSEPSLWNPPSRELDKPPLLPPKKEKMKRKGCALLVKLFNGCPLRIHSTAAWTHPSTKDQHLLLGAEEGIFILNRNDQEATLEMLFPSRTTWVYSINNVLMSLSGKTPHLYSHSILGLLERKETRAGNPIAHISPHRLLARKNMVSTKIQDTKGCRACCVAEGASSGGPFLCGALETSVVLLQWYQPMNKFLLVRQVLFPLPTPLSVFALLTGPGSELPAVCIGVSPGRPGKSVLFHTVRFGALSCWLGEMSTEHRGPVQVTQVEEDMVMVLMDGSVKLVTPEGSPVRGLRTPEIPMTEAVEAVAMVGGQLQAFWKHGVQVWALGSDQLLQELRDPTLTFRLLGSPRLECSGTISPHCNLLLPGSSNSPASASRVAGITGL
pIC50: −log10 of the molar value.
This section presents molecules with their documented pIC50 values.
reported-metric: pIC50

[[record]]
smiles_code = "C/C(Nc1c(C)nn(C)c1C)=C1/C(=O)Nc2cnc(-c3cnccc3C)cc21"
reported_result = "< 6.30"

[[record]]
smiles_code = "C/C(Nc1cc(C)n(CC[C@@H](C)O)n1)=C1/C(=O)Nc2cnc(-c3cnccc3C)cc21"
reported_result = "< 6.30"

[[record]]
smiles_code = "C/C(Nc1cc(C)n(CC2CC2)n1)=C1/C(=O)Nc2cnc(-c3cnccc3C)cc21"
reported_result = "> 7.30"

[[record]]
smiles_code = "COc1cccc(F)c1-c1cc2c(cn1)NC(=O)/C2=C(/C)Nc1cnn(C2CC2)c1"
reported_result = "> 7.30"

[[record]]
smiles_code = "C/C(Nc1cc(C)n([C@@H](C)C#N)n1)=C1/C(=O)Nc2cnc(-c3c(C)cccc3F)cc21"
reported_result = "> 7.30"

[[record]]
smiles_code = "C/C(Nc1cc(C)n(C[C@H](C)O)n1)=C1/C(=O)Nc2cnc(-c3cnccc3C)cc21"
reported_result = "> 7.30"

[[record]]
smiles_code = "C/C(Nc1cnn(C(F)F)c1)=C1/C(=O)Nc2cnc(-c3cnccc3C)cc21"
reported_result = "> 7.30"

[[record]]
smiles_code = "CNC(=O)C(C)(C)n1ccc(N/C(C)=C2\\C(=O)Nc3cnc(-c4cnccc4C)cc32)n1"
reported_result = "> 7.30"

[[record]]
smiles_code = "COc1cccc(F)c1-c1cc2c(cc1C)NC(=O)/C2=C(/C)Nc1cnn(C)c1"
reported_result = "> 7.30"

[[record]]
smiles_code = "C/C(Nc1ccn(C[C@H](C)O)n1)=C1/C(=O)Nc2cnc(-c3cnccc3C)cc21"
reported_result = "> 7.30"

[[record]]
smiles_code = "CCOc1cccc(F)c1-c1cc2c(cn1)NC(=O)/C2=C(/C)Nc1cnn(C)c1"
reported_result = "> 7.30"

[[record]]
smiles_code = "CCn1nc(N/C(C)=C2\\C(=O)Nc3cnc(-c4c(C)cccc4F)cc32)cc1C"
reported_result = "> 7.30"

[[record]]
smiles_code = "C/C(Nc1ccn(C(F)F)n1)=C1/C(=O)Nc2cnc(-c3cnccc3C)cc21"
reported_result = "> 7.30"

[[record]]
smiles_code = "C/C(Nc1ccn(C(C)(C)C#N)n1)=C1/C(=O)Nc2cnc(-c3cncc(N)c3C)cc21"
reported_result = "> 7.30"

[[record]]
smiles_code = "COCCn1cc(N/C(C)=C2\\C(=O)Nc3cnc(-c4cnccc4C)cc32)cn1"
reported_result = "> 7.30"

[[record]]
smiles_code = "C/C(Nc1ncn(C)n1)=C1/C(=O)Nc2cnc(-c3cnccc3C)cc21"
reported_result = "> 7.30"

[[record]]
smiles_code = "C/C(Nc1ccc(N2CCOCC2)nc1)=C1/C(=O)Nc2cnc(-c3cnccc3C)cc21"
reported_result = "> 7.30"

[[record]]
smiles_code = "C/C(Nc1cc2n(n1)CC(=O)N(C(C)C)C2)=C1/C(=O)Nc2cnc(-c3cnccc3C)cc21"
reported_result = "> 7.30"

[[record]]
smiles_code = "C/C(Nc1ccn(C(C)(C)C#N)n1)=C1/C(=O)Nc2cnc(-c3ccccc3C)cc21"
reported_result = "7.00 to 7.30"

[[record]]
smiles_code = "COc1ccncc1-c1cc2c(cn1)NC(=O)/C2=C(/C)Nc1ccn(C)n1"
reported_result = "> 7.30"

[[record]]
smiles_code = "COc1cccc(F)c1-c1cc2c(cn1)NC(=O)/C2=C(/C)Nc1ccn(C(C)(C)C#N)n1"
reported_result = "> 7.30"

[[record]]
smiles_code = "C/C(Nc1cnn(C)c1)=C1/C(=O)Nc2cnc(-c3c(C)cccc3F)cc21"
reported_result = "7.00 to 7.30"

[[record]]
smiles_code = "COc1cccc(F)c1-c1ccc2c(c1)/C(=C(/Nc1cnn(C)c1)c1ccccc1)C(=O)N2"
reported_result = "> 7.30"

[[record]]
smiles_code = "C/C(Nc1ccn(C[C@@H](C)O)n1)=C1/C(=O)Nc2cnc(-c3cnccc3C)cc21"
reported_result = "> 7.30"

[[record]]
smiles_code = "C/C(Nc1ccn(CC2CC2)n1)=C1/C(=O)Nc2cnc(-c3cnccc3C)cc21"
reported_result = "> 7.30"

[[record]]
smiles_code = "C/C(Nc1ccc(C)nc1)=C1/C(=O)Nc2cnc(-c3cnccc3C)cc21"
reported_result = "> 7.30"

[[record]]
smiles_code = "COc1cccc(F)c1-c1cc2c(cn1)NC(=O)/C2=C(/C)Nc1ccn(C)n1"
reported_result = "> 7.30"

[[record]]
smiles_code = "COc1cccc(F)c1-c1cc2c(cc1F)NC(=O)/C2=C(/C)Nc1cnn(C)c1"
reported_result = "> 7.30"

[[record]]
smiles_code = "C/C(Nc1ccn(CC(=O)N(C)C)n1)=C1/C(=O)Nc2cnc(-c3cnccc3C)cc21"
reported_result = "> 7.30"

[[record]]
smiles_code = "C/C(Nc1ccn(C(C)(C)C#N)n1)=C1/C(=O)Nc2cnc(-c3c(C)cccc3F)cc21"
reported_result = "> 7.30"

[[record]]
smiles_code = "C/C(Nc1cn(C)nc1C)=C1/C(=O)Nc2cnc(-c3cnccc3C)cc21"
reported_result = "7.00 to 7.30"

[[record]]
smiles_code = "CCOc1cccc(F)c1-c1cc2c(cn1)NC(=O)/C2=C(/C)Nc1ccc(N2CCNCC2)nc1"
reported_result = "> 7.30"

[[record]]
smiles_code = "CC/C(Nc1cnn(C)c1)=C1/C(=O)Nc2ccc(-c3c(F)cccc3OC)cc21"
reported_result = "> 7.30"

